src = the NIST ThermoML archive (doi:10.1021/je300507h)

- condition-set: 323.15 K; 101.33 kPa; Liquid; Capillary tube (Ostwald / Ubbelohde) method
endpoint-name: viscosity (mPa·s)

>  <compound>
CCC(=O)[O-].CCCC[n+]1ccn(C)c1 [3-butyl-1-methyl-1H-imidazolium propanoate]

>  <viscosity [mPa·s]>
99.27

$$$$

a = CCCC[n+]1ccn(C)c1.O=C[O-] [3-butyl-1-methyl-1H-imidazolium formate]
b = CC(=O)[O-].CCCCn1cc[n+](C)c1 [1-butyl-3-methylimidazolium acetate]
Query string: Given a and given b , which shows the smaller recorded viscosity? The response must carry the label of the picked entry.
Result string: a
(a: 50.78 mPa·s, b: 86.13 mPa·s)

* * *

- condition-set: 343.15 K; 101.33 kPa; Liquid; Wayne-Kerr 6430B Autobalance Bridge electrode
endpoint-name: electrical conductivity (S/m)

Known results for molecules:
>  <molecule>
CCCC[n+]1ccn(C)c1.O=C[O-] [3-butyl-1-methyl-1H-imidazolium formate]

>  <value>
1.04

$$$$
>  <molecule>
CCC(=O)[O-].CCCC[n+]1ccn(C)c1 [3-butyl-1-methyl-1H-imidazolium propanoate]

>  <value>
0.447

$$$$

I = CC(=O)[O-].CCCCn1cc[n+](C)c1 [1-butyl-3-methylimidazolium acetate]
II = CCCC(=O)[O-].CCCC[n+]1ccn(C)c1 [3-butyl-1-methyl-1H-imidazolium butanoate]
Query string: Exercise: compare I and II ; which one has the greater electrical conductivity? The response must carry the label of the picked entry.
Result string: I
(I: 0.532 S/m, II: 0.315 S/m)

* * *

- condition-set: 303.15 K; 101.33 kPa; Liquid; Capillary tube (Ostwald / Ubbelohde) method
endpoint-name: viscosity (mPa·s)

>  <molecule>
CCC(=O)[O-].CCCC[n+]1ccn(C)c1 [3-butyl-1-methyl-1H-imidazolium propanoate]

>  <viscosity [mPa·s]>
325.7

$$$$
>  <molecule>
CC(=O)[O-].CCCCn1cc[n+](C)c1 [1-butyl-3-methylimidazolium acetate]

>  <viscosity [mPa·s]>
288.8

$$$$

a = CCCC[n+]1ccn(C)c1.O=C[O-] [3-butyl-1-methyl-1H-imidazolium formate]
b = CCCC(=O)[O-].CCCC[n+]1ccn(C)c1 [3-butyl-1-methyl-1H-imidazolium butanoate]
Query string: Exercise: compare a and b ; which one has the greater viscosity? The response must carry the label of the picked entry.
Result string: b

* * *

- condition-set: 338.15 K; 101.33 kPa; Liquid; Wayne-Kerr 6430B Autobalance Bridge electrode
endpoint-name: electrical conductivity (S/m)

Known results for compounds:
>  <compound>
CC(=O)[O-].CCCCn1cc[n+](C)c1 [1-butyl-3-methylimidazolium acetate]

>  <unit-spec>
S/m

>  <electrical conductivity>
0.44

$$$$
>  <compound>
CCCC(=O)[O-].CCCC[n+]1ccn(C)c1 [3-butyl-1-methyl-1H-imidazolium butanoate]

>  <unit-spec>
S/m

>  <electrical conductivity>
0.258

$$$$

a = CCCC[n+]1ccn(C)c1.O=C[O-] [3-butyl-1-methyl-1H-imidazolium formate]
b = CCC(=O)[O-].CCCC[n+]1ccn(C)c1 [3-butyl-1-methyl-1H-imidazolium propanoate]
Query string: Given a and given b , which shows the smaller recorded electrical conductivity? The response must carry the label of the picked entry.
Result string: b

* * *

- condition-set: 318.15 K; 101.33 kPa; Liquid; Wayne-Kerr 6430B Autobalance Bridge electrode
endpoint-name: electrical conductivity (S/m)

>  <compound>
CCC(=O)[O-].CCCC[n+]1ccn(C)c1 [3-butyl-1-methyl-1H-imidazolium propanoate]

>  <value>
0.156

$$$$

I = CCCC[n+]1ccn(C)c1.O=C[O-] [3-butyl-1-methyl-1H-imidazolium formate]
II = CC(=O)[O-].CCCCn1cc[n+](C)c1 [1-butyl-3-methylimidazolium acetate]
III = CCCC(=O)[O-].CCCC[n+]1ccn(C)c1 [3-butyl-1-methyl-1H-imidazolium butanoate]
Query string: Exam item: list the entries in increasing order of electrical conductivity. Sort the labels as requested; that list is your answer.
Result string: III, II, I
(III: 0.0992 S/m, II: 0.178 S/m, I: 0.402 S/m)
